Listing of entries alongside the reported inhibition at 10 µM.
- Test target: dopamine D2 receptor (Rattus norvegicus)
- Sequence (P61169 whole entry): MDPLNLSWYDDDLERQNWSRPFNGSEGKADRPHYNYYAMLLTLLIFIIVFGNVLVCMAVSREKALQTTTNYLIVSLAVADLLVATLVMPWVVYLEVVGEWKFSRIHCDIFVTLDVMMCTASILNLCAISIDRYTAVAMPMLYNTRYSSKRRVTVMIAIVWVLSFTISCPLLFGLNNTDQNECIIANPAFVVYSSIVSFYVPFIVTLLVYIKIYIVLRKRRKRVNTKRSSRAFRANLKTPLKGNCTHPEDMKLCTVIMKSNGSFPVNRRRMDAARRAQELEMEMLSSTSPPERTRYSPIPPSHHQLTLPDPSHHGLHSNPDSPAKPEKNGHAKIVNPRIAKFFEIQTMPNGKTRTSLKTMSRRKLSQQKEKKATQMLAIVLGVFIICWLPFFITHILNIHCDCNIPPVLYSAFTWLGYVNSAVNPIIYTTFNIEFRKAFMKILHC
- Protocol notes: D2 receptor binding assay (3H-Spiperone, rat brain striatum membrane)
- Condition info: read-out: D2 inhibition %

Compound	inhibition at 10 µM, %
Cc1cc(=O)oc2cc(OCC(O)CN3CCC(c4noc5cc(F)ccc45)CC3)ccc12 (stereo not shown) [Compound 32]	62.6
O=c1ccc2ccc(OCCCCN3CCN(c4nsc5ccccc45)CC3)cc2o1 [Compound 2]	80.6
Cc1cc(=O)oc2cc(OCCCCCN3CCC(c4noc5cc(F)ccc45)CC3)ccc12 [Compound 9]	102
O=c1cc(C(F)(F)F)c2ccc(OCCCCN3CCC(c4noc5cc(F)ccc45)CC3)cc2o1 [Compound 17]	92.3

====

- Test target: UniProt P14842
- Protocol notes: 5HT2A receptor binding assay ([3H]-Ketanserin, rat brain striatum membrane)
- Condition info: test compound final concentration 10^−5 M; [3H]-Ketanserin; rat brain striatum membrane; read-out: 5HT2A inhibition %

Compound	Test target	inhibition at 10 µM [%]
O=c1cc(C(F)(F)F)c2ccc(OCCCN3CCN(c4nsc5ccccc45)CC3)cc2o1 [Compound 16]	UniProt P14842	96.3
CCCc1cc(=O)oc2cc(OCCCCN3CCC(c4noc5cc(F)ccc45)CC3)ccc12 [Compound 25]	UniProt P14842	40.2
Cc1cc(=O)oc2c(Cl)c(OCCCN3CCC(c4noc5cc(F)ccc45)CC3)ccc12 [Compound 21]	UniProt P14842	90.1
O=c1cc(-c2ccccc2)c2ccc(OCCCN3CCC(c4noc5cc(F)ccc45)CC3)cc2o1 [Compound 11]	UniProt P14842	57.8
O=c1cc(CO)c2ccc(OCCCN3CCC(c4noc5cc(F)ccc45)CC3)cc2o1 [Compound 30]	UniProt P14842	98.5
Cc1cc(=O)oc2cc(OC/C=C/CN3CCC(c4noc5cc(F)ccc45)CC3)ccc12 [Compound 10]	UniProt P14842	109
O=c1cc(C(F)(F)F)c2ccc(OCCCCN3CCC(c4noc5cc(F)ccc45)CC3)cc2o1 [Compound 17]	UniProt P14842	95.9
Cc1cc(=O)oc2cc(OCCCCCN3CCC(c4noc5cc(F)ccc45)CC3)ccc12 [Compound 9]	UniProt P14842	120

====

- Protocol notes: Catalepsy assay
- Assay type: in vivo
- Condition info: both sexes, Kunming (KM), mouse, in vivo; mice, po
Entries whose ED50 is below 50 mg/kg take True; entries at or above 50 mg/kg take False.

Molecule	Category
Cc1cc(=O)oc2c(Cl)c(OCCCCN3CCC(c4noc5cc(F)ccc45)CC3)ccc12 [Compound 19]	False
Cc1cc(=O)oc2cc(OCCCN3CCC(c4noc5cc(F)ccc45)CC3)ccc12 [Compound 7]	True
Cc1cc(=O)oc2cc(OCCCCN3CCC(c4noc5cc(F)ccc45)CC3)ccc12 [Compound 6]	True
O=c1ccc2ccc(OCCCCN3CCC(c4noc5cc(F)ccc45)CC3)cc2o1 [Compound 1]	True
Cc1cc(=O)oc2c(C)c(OCCCCN3CCC(c4noc5cc(F)ccc45)CC3)ccc12 [Compound 23]	True

====

- Test target: dopamine D2 receptor (Rattus norvegicus)
- Protocol notes: D2 receptor binding assay (3H-Spiperone, rat brain striatum membrane)
- Condition info: read-out: D2 inhibition %

Smiles structure	inhibition at 10 µM, %
O=c1cc(CO)c2ccc(OCCCCN3CCC(c4noc5cc(F)ccc45)CC3)cc2o1	2.4
Cc1cc(=O)oc2cc(OCCCN3CCN(c4nsc5ccccc45)CC3)ccc12	73.8
O=c1cc(C(F)(F)F)c2ccc(OCCCN3CCC(c4noc5cc(F)ccc45)CC3)cc2o1	94.6
CCc1cc(=O)oc2cc(OCCCCN3CCN(c4nsc5ccccc45)CC3)ccc12	58.8
Cc1cc(=O)oc2c(C)c(OCCCCN3CCN(c4nsc5ccccc45)CC3)ccc12	98.1
CCCc1cc(=O)oc2cc(OCCCCN3CCC(c4noc5cc(F)ccc45)CC3)ccc12	70.7
Cc1cc(=O)oc2c(C)c(OCCCCN3CCC(c4noc5cc(F)ccc45)CC3)ccc12	6.9
Cc1c(C)c2ccc(OCCCCN3CCC(c4noc5cc(F)ccc45)CC3)cc2oc1=O	43.2
O=c1cc(-c2ccccc2)c2ccc(OCCCCN3CCC(c4noc5cc(F)ccc45)CC3)cc2o1	65.2
Cc1cc(=O)oc2c(Cl)c(OCCCN3CCC(c4noc5cc(F)ccc45)CC3)ccc12	32.9
O=c1cc(-c2ccccc2)c2ccc(OCCCN3CCN(c4nsc5ccccc45)CC3)cc2o1	124
Cc1cc(=O)oc2c(Cl)c(OCCCN3CCN(c4nsc5ccccc45)CC3)ccc12	112
O=c1ccc2ccc(OCCCN3CCN(c4nsc5ccccc45)CC3)cc2o1	49.2
Cc1cc(=O)oc2cc(OCCCN3CCC(c4noc5cc(F)ccc45)CC3)ccc12	103
CCc1cc(=O)oc2cc(OCCCCN3CCC(c4noc5cc(F)ccc45)CC3)ccc12	84
O=c1cc(-c2ccccc2)c2ccc(OCCCCN3CCN(c4nsc5ccccc45)CC3)cc2o1	68.6
O=c1cc(CO)c2ccc(OCCCN3CCC(c4noc5cc(F)ccc45)CC3)cc2o1	20.3

====

Structures can show the parent of a compound that is named as a salt.

Molecule	melting point
Cc1cc(=O)oc2cc(OCC(O)CN3CCC(c4noc5cc(F)ccc45)CC3)ccc12 (stereo not drawn)	183 to 185 °C
Cc1cc(=O)oc2cc(OCCCN3CCN(c4nsc5ccccc45)CC3)ccc12	113 to 115 °C
O=c1cc(-c2ccccc2)c2ccc(OCC(O)CN3CCC(c4noc5cc(F)ccc45)CC3)cc2o1 (stereo not drawn)	193 to 195 °C
O=c1ccc2ccc(OCCCN3CCC(c4noc5cc(F)ccc45)CC3)cc2o1	128 to 130 °C
O=c1cc(C(F)(F)F)c2ccc(OCCCCN3CCC(c4noc5cc(F)ccc45)CC3)cc2o1	125 to 127 °C
O=c1cc(-c2ccccc2)c2ccc(OCCCN3CCN(c4nsc5ccccc45)CC3)cc2o1 (as salt: hydrochloride)	96 to 98 °C
Cc1c(C)c2ccc(OCCCCN3CCC(c4noc5cc(F)ccc45)CC3)cc2oc1=O	106 to 108 °C
Cc1cc(=O)oc2c(C)c(OCCCCN3CCN(c4nsc5ccccc45)CC3)ccc12	106 to 108 °C
Cc1cc(=O)oc2c(Cl)c(OCCCN3CCC(c4noc5cc(F)ccc45)CC3)ccc12	185 to 187 °C

====

- Test target: UniProtKB P14842
pIC50: −log10 of the molar value.
Listing of entries alongside the reported pIC50.

Smiles structure	pIC50
O=c1cc(-c2ccccc2)c2ccc(OCCCN3CCN(c4nsc5ccccc45)CC3)cc2o1	8.03
O=c1cc(C(F)(F)F)c2ccc(OCCCCN3CCN(c4nsc5ccccc45)CC3)cc2o1	9.10
Cc1cc(=O)oc2c(Cl)c(OCCCN3CCN(c4nsc5ccccc45)CC3)ccc12	8.16
O=c1ccc2ccc(OCCCCN3CCC(c4noc5cc(F)ccc45)CC3)cc2o1	8.82
Cc1cc(=O)oc2cc(OCCCN3CCC(c4noc5cc(F)ccc45)CC3)ccc12	9.16
Cc1cc(=O)oc2cc(OCCCCN3CCC(c4noc5cc(F)ccc45)CC3)ccc12	9.41

====

Reported pIC50, 5-HT1A receptor (Rattus norvegicus, UniProt P19327).
pIC50: −log10 of the molar value.

Smiles structure	pIC50
Cc1cc(=O)oc2cc(OCCCN3CCC(c4noc5cc(F)ccc45)CC3)ccc12	8.23
O=c1cc(C(F)(F)F)c2ccc(OCCCCN3CCN(c4nsc5ccccc45)CC3)cc2o1	8.21
Cc1cc(=O)oc2c(Cl)c(OCCCN3CCN(c4nsc5ccccc45)CC3)ccc12	7.89
O=c1ccc2ccc(OCCCCN3CCC(c4noc5cc(F)ccc45)CC3)cc2o1	8.02
Cc1cc(=O)oc2cc(OCCCCN3CCC(c4noc5cc(F)ccc45)CC3)ccc12	8.45
O=c1cc(-c2ccccc2)c2ccc(OCCCN3CCN(c4nsc5ccccc45)CC3)cc2o1	6.90

====

- Test target: dopamine D2 receptor (Rattus norvegicus)
- Protocol notes: D2 receptor binding assay (3H-Spiperone, rat brain striatum membrane)
- Condition info: read-out: D2 inhibition %
Listing of entries alongside the reported inhibition at 10 µM.

Molecule	Test target	inhibition at 10 µM
O=c1cc(-c2ccccc2)c2ccc(OCC(O)CN3CCC(c4noc5cc(F)ccc45)CC3)cc2o1 (centres unmarked)	dopamine D2 receptor (Rattus norvegicus)	110%
Cc1cc(=O)oc2cc(OCCCCN3CCN(c4nsc5ccccc45)CC3)ccc12	dopamine D2 receptor (Rattus norvegicus)	88.5%
CCCc1cc(=O)oc2cc(OCCCCN3CCN(c4nsc5ccccc45)CC3)ccc12	dopamine D2 receptor (Rattus norvegicus)	61.9%
O=c1ccc2ccc(OCCCCN3CCC(c4noc5cc(F)ccc45)CC3)cc2o1	dopamine D2 receptor (Rattus norvegicus)	128%
O=c1cc(C(F)(F)F)c2ccc(OCCCN3CCN(c4nsc5ccccc45)CC3)cc2o1	dopamine D2 receptor (Rattus norvegicus)	115%

====

- Test target: 5-HT2A receptor (Rattus norvegicus)
- Sequence (P14842 whole entry): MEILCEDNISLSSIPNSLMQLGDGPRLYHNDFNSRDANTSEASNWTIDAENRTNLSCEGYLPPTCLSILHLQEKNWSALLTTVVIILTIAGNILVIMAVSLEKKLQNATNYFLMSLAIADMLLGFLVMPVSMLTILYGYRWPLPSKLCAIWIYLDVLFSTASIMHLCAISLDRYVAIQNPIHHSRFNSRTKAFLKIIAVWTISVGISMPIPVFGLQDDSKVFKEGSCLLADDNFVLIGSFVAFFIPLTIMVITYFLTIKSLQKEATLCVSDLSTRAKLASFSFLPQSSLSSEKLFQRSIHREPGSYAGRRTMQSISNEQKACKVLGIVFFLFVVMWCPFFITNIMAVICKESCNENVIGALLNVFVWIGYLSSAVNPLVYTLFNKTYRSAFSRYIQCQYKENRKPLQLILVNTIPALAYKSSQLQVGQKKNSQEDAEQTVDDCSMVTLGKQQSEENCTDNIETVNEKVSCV
- Protocol notes: 5HT2A receptor binding assay ([3H]-Ketanserin, rat brain striatum membrane)
- Condition info: test compound final concentration 10^−5 M; [3H]-Ketanserin; rat brain striatum membrane; read-out: 5HT2A inhibition %
Outcome measure: inhibition at 10 µM (%)

Compound	Quantitative readout
Cc1cc(=O)oc2cc(OCC(O)CN3CCC(c4noc5cc(F)ccc45)CC3)ccc12 (centres unmarked)	157
O=c1ccc2ccc(OCCCN3CCC(c4noc5cc(F)ccc45)CC3)cc2o1	101
O=c1cc(C(F)(F)F)c2ccc(OCCCN3CCC(c4noc5cc(F)ccc45)CC3)cc2o1	83.3
O=c1ccc2ccc(OCCCCN3CCN(c4nsc5ccccc45)CC3)cc2o1	103
Cc1c(C)c2ccc(OCCCCN3CCC(c4noc5cc(F)ccc45)CC3)cc2oc1=O	24.7
O=c1ccc2ccc(OCCCN3CCN(c4nsc5ccccc45)CC3)cc2o1	59.1
O=c1cc(CO)c2ccc(OCCCCN3CCC(c4noc5cc(F)ccc45)CC3)cc2o1	1.8
Cc1cc(=O)oc2cc(OCCCCN3CCN(c4nsc5ccccc45)CC3)ccc12	104

The reported measurements were obtained from patent US9315496B2.
